Test system: HBV
Experiment: antiviral assay in 2.2.15 cells producing HBV (virion DNA dot blot)
Format: cell-based, Hepatitis B virus
Details: extra-cellular virus reduced by 50%; 2.2.15 cells, 9 days treatment; read-out: Antiviral EC50
Endpoint label: EC50 (µM)
Give the value, in units of µM, as a plain number.

Form field EC50, entry Cc1[nH]c2ccccc2c1C=NNc1nc(Nc2ccccc2)nc(N2CCOCC2)n1 : 3.4

Form field EC50, entry CCCCN(CCCC)c1nc(NN=Cc2ccc(OCC)c(O)c2)nc(Nc2ccc([N+](=O)[O-])cc2)n1 : 40

Form field EC50, entry Oc1ccc(Nc2nc(Nc3cccc(C(F)(F)F)c3)nc(N3CCOCC3)n2)cc1 : 1.2

Form field EC50, entry CCCCN(CCCC)c1nc(NN=Cc2c[nH]c3ccccc23)nc(Nc2ccc([N+](=O)[O-])cc2)n1 : 1

Form field EC50, entry Cc1[nH]c2ccccc2c1C=NNc1nc(NCc2ccccc2)nc(Nc2ccccc2)n1 : 29

Form field EC50, entry CCN(CC)c1nc(NN=Cc2ccc([N+](=O)[O-])cc2)nc(Nc2ccccc2)n1 : 8.4

Form field EC50, entry O=[N+]([O-])c1ccc(Nc2nc(NCc3ccccc3)nc(NN=Cc3ccccc3)n2)cc1 : 18

Form field EC50, entry Cc1ccc(C=NNc2nc(Nc3ccc([N+](=O)[O-])cc3)nc(Nc3ccccc3C)n2)cc1 : 0.5

Form field EC50, entry Cc1ccc(Nc2nc(NN=Cc3cccc(I)c3)nc(Nc3ccccc3)n2)cc1 : 54

Form field EC50, entry Cc1ccc(Nc2nc(NN=Cc3ccc4c(c3)OCO4)nc(Nc3ccccc3)n2)c(C)c1 : 15
